Some compounds, each annotated with its measured mean latency.
# Test system: male Wistar rats
# assay.details: Hot-plate test: onset of habituation to the analgesic action of morphine
# Format: in vivo
# cond: T 0; after 15 days of daily morphine; substance 100 mg/kg i.p.; morphine 10 mg/kg i.p.; plate 51°C
measured.property: mean latency

CC(C)CC(=O)O[C@H](CC(=O)OCCCC(=O)[O-])C[N+](C)(C)C ... 6.5 s
CC(=O)OC(CC(=O)[O-])C[N+](C)(C)C (stereo not shown) ... 6.0 s
CC(C)CC(=O)O[C@H](CC(=O)[O-])C[N+](C)(C)C ... 6.0 s
O=C(O)CCCO [GHB, gamma-hydroxybutyric acid] ... 5.5 s

Ref: patent EP0630648A1
